# procedureSummary: S16 Schwann cell viability assay (CellTiter-Glo assay) (AID 624031); also: nearly all actives have a fitted effect of over 70% in size
# appliedConditions: S16 rat Schwann cells viability, 24 h; series mostly up to 57.5 µM
Inconclusive results are not listed. Activity calls are given as the source filed them. Calls follow the shape of the dose curve; as a rule, active = well fitted cell-killing curve with a large enough effect; inconclusive = small, poorly fitted or top-dose-only effect, or effect the other way; inactive = flat fitted curve, though single readings scatter.
Hi there, use one of these labels in your reply, thanks! 1 (active), 0 (inactive)

Qu. How was CCn1ccnc1CC1COc2ccccc2O1 (stereo not drawn) classified in this test?
Ans. 0

Qu. What about Cc1nc2sccn2c(=O)c1CCN1CCC(=C(c2ccc(F)cc2)c2ccc(F)cc2)CC1 ?
Ans. 0

Qu. What about CN(C(=O)CCCOc1ccc2[nH]c(=O)ccc2c1)C1CCCCC1 ?
Ans. 0

Qu. What about CN/C(=C\[N+](=O)[O-])NCCSCc1ccc(CN(C)C)o1 ?
Ans. 0

Qu. What about OC(CCN1CCCCC1)(c1ccccc1)C1CCCCC1 (stereo not drawn) ?
Ans. 0

Qu. What about COCC(=O)O[C@]1(CCN(C)CCCc2nc3ccccc3[nH]2)CCc2cc(F)ccc2[C@@H]1C(C)C ?
Ans. 1

Qu. What about CCN1CCc2nc(N)oc2CC1 ?
Ans. 0

Qu. What about NC(Cc1ccc(Cl)cc1)C(=O)O (stereo not drawn) ?
Ans. 0

Qu. What about CCCN(CCC)CCc1cccc2c1CC(=O)N2 ?
Ans. 0

Qu. What about CCCN1C[C@H](CSC)C[C@@H]2c3cccc4[nH]cc(c34)C[C@H]21 ?
Ans. 0

Qu. What about Cc1nc2ccccn2c(=O)c1CCN1CCC(C(=O)c2ccc(F)cc2)CC1 ?
Ans. 0

Qu. What about NC(=O)N1c2ccccc2C=Cc2ccccc21 ?
Ans. 0

Qu. What about CC(=O)Oc1cc(C(C)C)c(OCCN(C)C)cc1C ?
Ans. 0
